// provenance: patent US20110028455A1

I'd be grateful if you could share measured half-life for these entries.
methodDescription: Metabolic stability in rat liver microsomes
Format: in vitro ADME
assayConditions: 30 minutes incubation, remaining compound by HPLC, related compounds lacking the C-6 alkyl group, read-out: Rat Microsome Stability of 6-H cyanopyridine Compounds (approximate half life)
Reply numerically in min, unit not repeated.

Briefly, half-life measured for "Cc1c(Nc2c(C#N)cncc2-c2ccc(OCCNCc3ccccn3)cc2)ccc2[nH]ccc12" : 3

Briefly, half-life measured for "Cc1c(Nc2c(C#N)cncc2-c2ccc(OCCN3CCC(c4ccccc4)CC3)cc2)ccc2[nH]ccc12" : 5

Briefly, half-life measured for "Cc1c(Nc2c(C#N)cncc2-c2ccc(OCCN3CCN(C)CC3)cc2)ccc2[nH]ccc12" : 14

Briefly, half-life measured for "Cc1c(Nc2c(C#N)cncc2-c2ccc(OCCN3CCN(CCO)CC3)cc2)ccc2[nH]ccc12" : 11

Briefly, half-life measured for "Cc1c(Nc2c(C#N)cncc2-c2ccc(OCCN3CCCC3)cc2)ccc2[nH]ccc12" : 21

Briefly, half-life measured for "Cc1c(Nc2c(C#N)cncc2-c2ccc(OCCNCc3ccccc3)cc2)ccc2[nH]ccc12" : 6

Briefly, half-life measured for "CCN1CCN(CCOc2ccc(-c3cncc(C#N)c3Nc3ccc4[nH]ccc4c3C)cc2)CC1" : 8
